Entry source: paper PMC6127852

# MIC per entry
system: K. pneumonia ATCC 700803
READOUT_TYPE: MIC

Cl.Cl.c1ccc(SCn2cc(COc3ccc(-c4nc5cc(C6=NCCN6)ccc5[nH]4)cc3)nn2)cc1    > 256 µg/mL
c1ccc(-n2cc(COc3ccc(-c4nc5cc(C6=NCCN6)ccc5[nH]4)cc3)nn2)cc1    > 256 µg/mL
N=C(N)c1ccc2[nH]c(-c3ccc(OCc4cn(Cc5ccccc5)nn4)cc3)nc2c1    64 µg/mL
Cl.Cl.Clc1ccccc1-n1cc(COc2ccc(-c3nc4cc(C5=NCCN5)ccc4[nH]3)cc2)nn1    > 256 µg/mL
CC(C)NC(=N)c1ccc2[nH]c(-c3ccc(OCc4cn(Cc5ccccc5)nn4)cc3)nc2c1    > 256 µg/mL
COc1ccc(-n2cc(COc3ccc(-c4nc5cc(C6=NCCN6)ccc5[nH]4)cc3)nn2)cc1.Cl.Cl    > 256 µg/mL
O=C(O)c1cn(C2CC2)c2cc(N3CCNCC3)c(F)cc2c1=O [Ciprofloxacin, ciprofloxacin, reference compound]    0.06 µg/mL
COc1ccc(-n2cc(COc3ccc(-c4nc5cc(C(=N)N)ccc5[nH]4)cc3)nn2)cc1.Cl.Cl    > 256 µg/mL
CC(C)NC(=N)c1ccc2[nH]c(-c3ccc(OCc4cn(-c5ccccc5Cl)nn4)cc3)nc2c1.Cl.Cl    > 256 µg/mL
